# target entity: human CYP2C19 (Homo sapiens)
# Sequence (P33261 whole entry): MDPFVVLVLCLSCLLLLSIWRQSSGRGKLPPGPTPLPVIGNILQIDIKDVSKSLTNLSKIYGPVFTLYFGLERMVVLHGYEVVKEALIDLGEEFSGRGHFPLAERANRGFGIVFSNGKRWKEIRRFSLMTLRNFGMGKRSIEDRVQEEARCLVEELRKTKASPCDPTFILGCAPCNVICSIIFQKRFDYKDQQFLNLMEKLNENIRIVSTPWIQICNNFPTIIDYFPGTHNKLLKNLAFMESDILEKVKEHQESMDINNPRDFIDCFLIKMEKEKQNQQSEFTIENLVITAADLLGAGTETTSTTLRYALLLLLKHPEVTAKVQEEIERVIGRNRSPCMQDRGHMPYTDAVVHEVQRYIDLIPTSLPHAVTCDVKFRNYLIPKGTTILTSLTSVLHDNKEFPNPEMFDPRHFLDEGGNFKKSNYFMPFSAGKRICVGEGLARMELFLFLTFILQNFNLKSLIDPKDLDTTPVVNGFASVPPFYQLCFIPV
# assay: biochemical
# details: CYP2C19 IC50 (half-maximal inhibitory concentration)
Counter-ions that a name gives are not always drawn.
endpoint: log10(IC50) (log10 of the value in nM)
Kindly note that the scale is log10 and the underlying IC50 is in nM.

# example entries with known answers
# molecule, log10(IC50)
records = [
    ("Clc1ccc(CCC(Cn2ccnc2)Sc2c(Cl)cccc2Cl)cc1 (stereo not drawn) [Butoconazole nitrate]", 1.60),
    ("O=S(=O)(c1ccc(Cl)cc1)c1cc(Cl)c(Cl)cc1Cl", 2.43),
    ("COc1ccc(CN(CCN(C)C)c2ncccn2)cc1 [Thonzylamine hydrochloride]", 4.20),
    ("COC(=O)N(C(=O)N1COC2(C(=O)OC)Cc3cc(Cl)ccc3C2=N1)c1ccc(OC(F)(F)F)cc1 (racemic) [(+-)-Indoxacarb]", 2.45),
    ("CC(Cc1cccc(C(F)(F)F)c1)NCCOC(=O)c1ccccc1 (stereo not drawn) [Benfluorex hydrochloride]", 3.84),
    ("COP(=S)(OC)Oc1ccc(S(=O)(=O)N(C)C)cc1", 1.95),
]

Hi team, please reply with log10(IC50) for each item in this list.
1. C=C(C)[C@H]1Cc2c(ccc3c2O[C@@H]2COc4cc(OC)c(OC)cc4[C@@H]2C3=O)O1
2. CCCCC(C#N)(Cn1cncn1)c1ccc(Cl)cc1 (stereo not drawn)

1. 3.02
2. 2.82

Hi team, please reply with log10(IC50) for each item in this list.
1. CC(C1CC1)C(O)(Cn1cncn1)c1ccc(Cl)cc1 (stereo not drawn)
2. CC(C)(C)C(O)C(Oc1ccc(-c2ccccc2)cc1)n1cncn1 (stereo not drawn)
3. CC(COc1ccccc1)N(CCCl)Cc1ccccc1 (stereo not drawn) [Phenoxybenzamine hydrochloride]

1. 2.48
2. 4.68
3. 3.39

Hi team, please reply with log10(IC50) for each item in this list.
1. CC(C)(C)[C@@H](O)[C@@H](Cc1ccc(Cl)cc1)n1cncn1 (racemic)
2. Nc1ccc2c(c1)CN1C(=O)c3ccccc3C1=N2
3. CCN(CC)C(=O)C(C)Oc1cccc2ccccc12 (stereo not drawn) [Napropamide]
4. COc1cccc(C(=O)NN(C(=O)c2cc(C)cc(C)c2)C(C)(C)C)c1C [Methoxyfenozide]

1. 2.52
2. 3.45
3. 2.82
4. 3.54
